System: HT29 colon
Assay: NCI-60 one-dose screen, 48 h (100 = growth as untreated, 0 = no growth, -100 = all killed)
Details: 10 µM unless noted
Procedure: Growth inhibition of the HT29 human tumor cell line is measured as a screen for anti-cancer activity. Cells are grown in 96 well plates and exposed to the test compound for 48 hours. Compounds are tested at a single concentration, which is 10^-5 M for most compounds. The reported endpoint is percent growth (GI% or GIPRCNT), where numbers from 0 - 100% represent growth inhibition, and numbers from -100% - 0 represent cell death. For example, a value of 40 represents 60% growth inhibition. […]
About 83,000 compounds went through this panel and 20% of them were active in at least one assay; those are over-represented in the sample as a whole.
Rule: growth below 30% gives yes. Equal to or above 30% gives no.

Below, 6 molecules whose answers are already recorded.
INPUT: Hello, I'm reviewing records and need to know if growth of CC(=O)c1cc(C(=O)c2ccccc2)n2c1ccc1ccccc12 is below 30%. Could you check?
OUTPUT: no

INPUT: Hello, I'm reviewing records and need to know if growth of NC(=S)Nc1cccc(NC(N)=S)c1 is below 30%. Could you check?
OUTPUT: no

INPUT: Hello, I'm reviewing records and need to know if growth of COc1ccc(N2N=C(c3ccc4c(c3)OCO4)CC2c2cccc(NC(=O)CCNS(=O)(=O)c3ccc(Cl)cc3)c2)cc1 (stereo unspecified) is below 30%. Could you check?
OUTPUT: yes

INPUT: Hello, I'm reviewing records and need to know if growth of CCCCSc1nc(Nc2ccc(S(N)(=O)=O)cc2)c(C#N)c(-c2ccc(Cl)cc2)n1 is below 30%. Could you check?
OUTPUT: yes

INPUT: Hello, I'm reviewing records and need to know if growth of Cc1cc(=O)oc2cc(OCCCOc3ccc(/C=C/C(=O)Nc4ccccc4N)cc3)ccc12 is below 30%. Could you check?
OUTPUT: no

INPUT: Hello, I'm reviewing records and need to know if growth of NS(=O)(=O)c1ccc(-n2cc(-c3cccc(NC(=O)c4cc(Cl)cc(Cl)c4)c3)nn2)cc1 is below 30%. Could you check?
OUTPUT: no

Further cases:
INPUT: Hello, I'm reviewing records and need to know if growth of CC(=O)Nc1cccc(Nc2nccc(N[C@@H](C)c3ccccc3)n2)c1 is below 30%. Could you check?
OUTPUT: yes

INPUT: Hello, I'm reviewing records and need to know if growth of COc1cc2c(c(OC)c1OC)C(=O)CC(c1cccc(NC(=O)c3cc(NC(=O)[C@H](C)N)ccc3Cl)c1)O2 (stereo partly specified) is below 30%. Could you check?
OUTPUT: no

INPUT: Hello, I'm reviewing records and need to know if growth of CC1(c2cc3cc(Cl)ccc3oc2=O)NC(=O)c2c(/C=C/C(=O)OC3CC4CCC3(C)C4(C)C)cccc2N1 (stereo unspecified) is below 30%. Could you check?
OUTPUT: no

INPUT: Hello, I'm reviewing records and need to know if growth of COc1ccc(NC(=O)Cn2c(O)c(N=Nc3ccc(S(N)(=O)=O)cc3)c3ccccc32)cc1 is below 30%. Could you check?
OUTPUT: yes

INPUT: Hello, I'm reviewing records and need to know if growth of CN(C)c1nc(NCCNS(=O)(=O)c2ccc(C3=Nc4c(N)nc(N)nc4NC(c4ccc(Cl)cc4)C3)cc2)nc(Nc2ccc(F)cc2)n1 (stereo unspecified) is below 30%. Could you check?
OUTPUT: yes

INPUT: Hello, I'm reviewing records and need to know if growth of COCOc1cc2c(=O)c(C)c(C(=O)N[C@@H](Cc3ccccc3)C(O)C(=O)NCc3ccccc3)oc2cc1OC (stereo partly specified) is below 30%. Could you check?
OUTPUT: no

INPUT: Hello, I'm reviewing records and need to know if growth of CC(C)Sc1nc(NCCc2c[nH]c3ccccc23)c(C#N)c(-c2ccc(F)cc2)n1 is below 30%. Could you check?
OUTPUT: yes

INPUT: Hello, I'm reviewing records and need to know if growth of COc1ccc(-c2nc(SC(C)C)nc(NCCc3c[nH]c4ccccc34)c2C#N)cc1 is below 30%. Could you check?
OUTPUT: yes

INPUT: Hello, I'm reviewing records and need to know if growth of N#Cc1c(-c2cccc3ccccc23)cc(-c2cccc(OCC(=O)O)c2)[nH]c1=O is below 30%. Could you check?
OUTPUT: no

INPUT: Hello, I'm reviewing records and need to know if growth of COc1ccc(-c2nc3cc(C)ccc3n2CC(=O)N=Nc2c(O)[nH]c3ccccc23)cc1 is below 30%. Could you check?
OUTPUT: yes

INPUT: Hello, I'm reviewing records and need to know if growth of Cc1ccccc1[C@H]1C(C(=O)c2ccc(Cl)cc2)C2(N[C@@H]1c1ccccc1)C(=O)Nc1ccc(Cl)cc12 (stereo partly specified) is below 30%. Could you check?
OUTPUT: yes

INPUT: Hello, I'm reviewing records and need to know if growth of COc1ccc(C(=O)/C=C/c2ccc(Oc3nc(Nc4ccc(F)cc4)nc(N(C)C)n3)c(OC)c2)cc1 is below 30%. Could you check?
OUTPUT: no

INPUT: Hello, I'm reviewing records and need to know if growth of OCC1(CCCc2ccccc2)CCCN(c2nccc3ccccc23)C1 (stereo unspecified) is below 30%. Could you check?
OUTPUT: yes

INPUT: Hello, I'm reviewing records and need to know if growth of CC1(C)CC[C@]2(C(=O)O)CC[C@]3(C)C(=CCC4[C@@]5(C)C[C@@H](O)[C@@H]6OC(c7ccccc7F)OC[C@@]6(C)C5CC[C@]43C)C2C1 (stereo partly specified) is below 30%. Could you check?
OUTPUT: yes

INPUT: Hello, I'm reviewing records and need to know if growth of O=C(C1=CNC(=S)NC1c1ccc(O)cc1)c1cc2ccccc2oc1=O (stereo unspecified) is below 30%. Could you check?
OUTPUT: no

INPUT: Hello, I'm reviewing records and need to know if growth of CCN1CCN(Cc2ccc(C(=O)Nc3cccc(C#Cc4cccc5[nH]nc(N)c45)c3)cc2C(F)(F)F)CC1 is below 30%. Could you check?
OUTPUT: yes

INPUT: Hello, I'm reviewing records and need to know if growth of Cc1ccc2c(c1)nc(-c1ccccc1)n2CC(=O)N=Nc1c(O)[nH]c2ccc(Br)cc12 is below 30%. Could you check?
OUTPUT: yes

INPUT: Hello, I'm reviewing records and need to know if growth of CC(=O)OCC1OC(OC2C(COC(C)=O)OC(n3cc(COc4ccc5ccc(=O)oc5c4)nn3)C(OC(C)=O)C2OC(C)=O)C(OC(C)=O)C(OC(C)=O)C1OC(C)=O (stereo unspecified) is below 30%. Could you check?
OUTPUT: no

INPUT: Hello, I'm reviewing records and need to know if growth of Cn1cc(-c2nc(N)nnc2-c2c[nH]c3ccc(F)cc23)c2cc(Br)cnc21 is below 30%. Could you check?
OUTPUT: yes

INPUT: Hello, I'm reviewing records and need to know if growth of N/C(=N\c1nc2ccccc2s1)NC(=O)Nc1c(Cl)cccc1Cl is below 30%. Could you check?
OUTPUT: yes

* * *

System: A498 renal
Assay: NCI-60 one-dose screen, 48 h (100 = growth as untreated, 0 = no growth, -100 = all killed)
Settings: 10 µM unless noted
The panel holds about 83,000 compounds, 20% with a hit somewhere; the sample as a whole holds those more often.
For each of the compounds below, state its growth.
Answers are plain numbers, in %.

Some compounds with recorded growth:
INPUT: Please give the measured growth for this compound: COc1ccc(-c2ccnc(SCc3cc4ccccc4[nH]c3=O)n2)cc1OC
OUTPUT: -18.9

INPUT: Please give the measured growth for this compound: COc1ccc2c(c1)c(-c1cc3nc(-c4cn(C)c5ncc(Br)cc45)cc(N)n3n1)cn2C
OUTPUT: 86.8

INPUT: Please give the measured growth for this compound: O=C(c1ccc(Cl)cc1)c1ccc(OCCCN2CCN(c3ccncc3)CC2)cc1
OUTPUT: 80.5

INPUT: Please give the measured growth for this compound: Cn1cc(-c2cc(N)n3nc(-c4c[nH]c5ccccc45)cc3n2)c2cc(Br)cnc21
OUTPUT: -28.6

INPUT: Please give the measured growth for this compound: O=[N+]([O-])c1ccc(/C=C/c2nc3ccccc3n3c(=S)[nH]nc23)cc1
OUTPUT: 91.9

INPUT: Please give the measured growth for this compound: COc1cc(OC)c2c3nc4cc(C)c(C)cc4nc3n(CCN(C)C)c2c1
OUTPUT: 105

INPUT: Please give the measured growth for this compound: COc1ccc(-c2ccnc(SCc3cc4ccccc4[nH]c3=O)n2)cc1
OUTPUT: 93.2

INPUT: Please give the measured growth for this compound: COc1cc2c(c(OC)c1OC)C(=O)CC(c1cccc(NC(=O)c3cccc([N+](=O)[O-])c3)c1)O2 (stereo not given)
OUTPUT: 91.2

For each of the items listed, what is its growth?
1. O=c1onc(-c2cc3ccccc3nc2Cl)n1-c1cccc2ccccc12
2. O=C1N/C(=N\c2nccs2)S/C1=C\C=C/c1ccccc1

OUTPUT:
90.8
57.2
